Value source: patent US10208089B2

- study_target: C5 (Homo sapiens)
- Sequence (P01031 19-1676): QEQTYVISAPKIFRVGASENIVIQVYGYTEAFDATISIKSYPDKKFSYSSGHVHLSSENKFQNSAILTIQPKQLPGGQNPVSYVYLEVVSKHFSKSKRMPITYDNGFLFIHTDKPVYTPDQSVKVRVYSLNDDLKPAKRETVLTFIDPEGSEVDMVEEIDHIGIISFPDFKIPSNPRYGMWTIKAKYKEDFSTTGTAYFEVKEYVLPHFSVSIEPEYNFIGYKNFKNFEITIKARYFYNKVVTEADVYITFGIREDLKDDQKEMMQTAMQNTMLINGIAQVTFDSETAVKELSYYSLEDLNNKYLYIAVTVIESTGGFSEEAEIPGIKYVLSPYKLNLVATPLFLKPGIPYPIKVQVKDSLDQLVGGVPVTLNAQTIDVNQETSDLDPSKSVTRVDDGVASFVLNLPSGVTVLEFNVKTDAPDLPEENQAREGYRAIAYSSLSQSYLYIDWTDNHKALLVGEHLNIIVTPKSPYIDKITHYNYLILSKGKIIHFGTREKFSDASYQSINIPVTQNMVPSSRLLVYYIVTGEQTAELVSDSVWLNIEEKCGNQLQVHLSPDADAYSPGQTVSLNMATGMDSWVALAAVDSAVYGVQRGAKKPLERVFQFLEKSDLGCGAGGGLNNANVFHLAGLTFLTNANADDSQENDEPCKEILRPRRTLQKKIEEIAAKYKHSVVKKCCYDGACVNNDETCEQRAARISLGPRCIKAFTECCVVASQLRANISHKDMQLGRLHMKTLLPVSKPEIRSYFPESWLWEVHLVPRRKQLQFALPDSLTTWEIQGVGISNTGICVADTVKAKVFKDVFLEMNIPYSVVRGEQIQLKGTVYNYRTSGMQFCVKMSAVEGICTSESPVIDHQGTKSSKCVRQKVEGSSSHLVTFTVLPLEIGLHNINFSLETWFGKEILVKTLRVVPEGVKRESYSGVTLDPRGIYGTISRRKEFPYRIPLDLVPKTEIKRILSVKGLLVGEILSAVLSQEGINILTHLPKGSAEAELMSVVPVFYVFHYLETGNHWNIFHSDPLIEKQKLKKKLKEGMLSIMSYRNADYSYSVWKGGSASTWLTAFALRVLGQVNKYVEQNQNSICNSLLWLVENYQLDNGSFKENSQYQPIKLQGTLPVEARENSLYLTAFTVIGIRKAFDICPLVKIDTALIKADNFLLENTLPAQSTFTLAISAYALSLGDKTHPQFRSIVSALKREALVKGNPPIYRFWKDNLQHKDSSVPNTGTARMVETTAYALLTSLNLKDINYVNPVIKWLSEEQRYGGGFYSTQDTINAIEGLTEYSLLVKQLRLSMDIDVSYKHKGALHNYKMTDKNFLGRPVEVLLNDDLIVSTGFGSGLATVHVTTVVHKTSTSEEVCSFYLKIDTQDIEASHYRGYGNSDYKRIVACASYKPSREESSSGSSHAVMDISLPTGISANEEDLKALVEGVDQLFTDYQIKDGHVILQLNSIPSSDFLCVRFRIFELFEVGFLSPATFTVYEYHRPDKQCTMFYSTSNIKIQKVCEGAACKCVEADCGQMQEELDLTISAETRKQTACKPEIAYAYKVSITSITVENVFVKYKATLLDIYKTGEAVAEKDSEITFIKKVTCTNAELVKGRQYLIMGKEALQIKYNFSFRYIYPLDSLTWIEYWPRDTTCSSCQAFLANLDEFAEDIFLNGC
- procedure_text: Human hemolysis assay (RBC lysis assay using complete human sera)
- Format: cell-based
- Design: with complete human sera (Complement Technology, Tyler Tex.) and polypeptides; tissue Complement Technology, Tyler Tex; host or cells: complete human serum
- condition_set: inhibition of lysis of antibody-sensitized sheep erythrocytes, complete human sera
pIC50: −log10 of the molar value. Starred links: 1 amine or outer side, 2 acyl side, 3 side chain; linkers in the order of their positions; H or OH if unused. Positions of bridges follow the written chain, without caps; N, C: chain ends. Non-standard residues stand in square brackets, D forms with d. Residues, ends and D or L forms follow the SMILES beside them. Trp(7-aza) = N[C@@H](Cc1c[nH]c2ncccc12)C(=O)O; mXylylene = c1cc(C[*:1])cc(C[*:2])c1; pXylylene = c1cc(C[*:2])ccc1C[*:1]; Chg = N[C@H](C(=O)O)C1CCCCC1; Phg = N[C@H](C(=O)O)c1ccccc1; Tle = CC(C)(C)[C@H](N)C(=O)O; NMeS = CN[C@@H](CO)C(=O)O; hCys = N[C@@H](CCS)C(=O)O; Nle = CCCC[C@H](N)C(=O)O; Nva = CCC[C@H](N)C(=O)O
measure_name: pIC50

# compound, measure_name, recorded_result
rows = [
    ("CCC[C@H](NC(=O)[C@@H]1CSCc2cccc(c2)CSC[C@H](NC(=O)[C@H](CCC)NC(C)=O)C(=O)N[C@@H](c2ccccc2)C(=O)N[C@@H]([C@@H](C)O)C(=O)N[C@@H](Cc2c[nH]c3ncccc23)C(=O)N[C@@H](CCC(N)=O)C(=O)N[C@@H](Cc2ccc(O)cc2)C(=O)N(C)[C@@H](CO)C(=O)N[C@@H](C)C(=O)N1)C(N)=O [Compound R3098] (Ac-[Nva]C[Phg]T[Trp(7-aza)]QY[NMeS]AC[Nva]-NH2; linker 2-10 via mXylylene)", "pIC50", "< 4.00"),
    ("CCC[C@H](NC(=O)[C@@H]1CCCN1C(=O)[C@H](CCC)NC(=O)[C@H](CS)NC(=O)[C@H](Cc1c[nH]cn1)NC(=O)[C@H](CO)N(C)C(=O)[C@H](Cc1ccc(O)cc1)NC(=O)[C@H](CCC(=O)O)NC(=O)[C@H](Cc1c[nH]c2ncccc12)NC(=O)[C@@H](NC(=O)[C@@H](NC(=O)[C@H](CS)NC(=O)[C@H](CCC)NC(C)=O)c1ccccc1)[C@@H](C)O)C(N)=O [Compound R3022] (Ac-[Nva]C[Phg]T[Trp(7-aza)]EY[NMeS]HC[Nva]P[Nva]-NH2)", "pIC50", "< 4.99"),
    ("CCC[C@H](NC(=O)[C@@H]1CSCc2ccc(cc2)CSC[C@H](NC(=O)[C@H](CCC)NC(C)=O)C(=O)N[C@@H](C2CCCCC2)C(=O)N[C@@H]([C@@H](C)O)C(=O)N[C@@H](Cc2c[nH]c3ncccc23)C(=O)N[C@@H](CCC(=O)O)C(=O)N[C@@H](Cc2ccc(O)cc2)C(=O)N(C)[C@@H](CO)C(=O)N[C@@H](Cc2c[nH]cn2)C(=O)N1)C(N)=O [Compound R3058] (Ac-[Nva]C[Chg]T[Trp(7-aza)]EY[NMeS]HC[Nva]-NH2; linker 2-10 via pXylylene)", "pIC50", "< 5.00"),
    ("CCC[C@H](NC(=O)[C@@H]1CCSCc2cccc(c2)CSCC[C@H](NC(=O)[C@H](CCC)NC(C)=O)C(=O)N[C@@H](c2ccccc2)C(=O)N[C@@H]([C@@H](C)O)C(=O)N[C@@H](Cc2c[nH]c3ncccc23)C(=O)N[C@@H](CCC(=O)O)C(=O)N[C@@H](Cc2ccc(O)cc2)C(=O)N(C)[C@@H](CO)C(=O)N[C@@H](Cc2c[nH]cn2)C(=O)N1)C(N)=O [Compound R3107] (Ac-[Nva][hCys][Phg]T[Trp(7-aza)]EY[NMeS]H[hCys][Nva]-NH2; linker 2-10 via mXylylene)", "pIC50", "< 4.12"),
    ("CCC[C@H](NC(C)=O)C(=O)N[C@H]1CSCc2cccc(c2)CSC[C@@H](C(=O)N[C@@H](CCC)C(=O)N2CCC[C@H]2C(N)=O)NC(=O)[C@H](Cc2c[nH]cn2)NC(=O)[C@H](CO)N(C)C(=O)[C@H](Cc2ccc(O)cc2)NC(=O)[C@H](CCC(=O)O)NC(=O)[C@H](Cc2c[nH]c3ncccc23)NC(=O)[C@H]([C@@H](C)O)NC(=O)[C@H](c2ccccc2)NC1=O [Compound R3011] (Ac-[Nva]C[Phg]T[Trp(7-aza)]EY[NMeS]HC[Nva]P-NH2; linker 2-10 via mXylylene)", "pIC50", 6.95),
    ("CCC[C@H](NC(=O)[C@@H](NC(=O)[C@@H]1CCCN1C(=O)[C@H](Cc1ccc(O)cc1)NC(=O)[C@H](CCC(=O)O)NC(=O)[C@@H]1CSCc2cccc(c2)CSC[C@H](NC(=O)[C@H](CCC)NC(C)=O)C(=O)N[C@@H](Cc2ccc(O)cc2)C(=O)N[C@@H](CCC(=O)O)C(=O)N[C@@H](CC(N)=O)C(=O)N[C@@H](C(C)(C)C)C(=O)N[C@@H](Cc2ccc(O)cc2)C(=O)N1)c1ccccc1)C(N)=O [Compound R3017] (Ac-[Nva]CYEN[Tle]YCEYP[Phg][Nva]-NH2; linker 2-8 via mXylylene)", "pIC50", "< 4.00"),
    ("CCCC[C@H](NC(C)=O)C(=O)N[C@H]1CSCc2cccc(c2)CSC[C@@H](C(=O)N[C@@H](CCC)C(N)=O)NC(=O)[C@H](Cc2c[nH]cn2)NC(=O)[C@H](CO)N(C)C(=O)[C@H](Cc2ccc(O)cc2)NC(=O)[C@H](CCC(=O)O)NC(=O)[C@H](Cc2c[nH]c3ncccc23)NC(=O)[C@H]([C@@H](C)O)NC(=O)[C@H](c2ccccc2)NC1=O [Compound R3112] (Ac-[Nle]C[Phg]T[Trp(7-aza)]EY[NMeS]HC[Nva]-NH2; linker 2-10 via mXylylene)", "pIC50", "< 5.30"),
]
